- TEST_PROTOCOL: Cytotoxicity against human MSC assessed as cell viability at 10 uM measured on day 1 by alamar blue assay (reference value: 97 to 101%)
- MEASUREMENT_CONTEXT: MSC cells, read-out: Activity
MEASURED_ATTRIBUTE: viability at 1 day, 10 µM (%)

1. Oc1ccc(/C=C/c2cc(O)cc(O)c2)cc1 [RESVERATROL] = 98
2. O=C(CCc1ccc(O)cc1)c1c(O)cc(O)cc1O [PHLORETIN] = 106
3. O=c1c(O)c(-c2ccccc2)oc2cc(O)cc(O)c12 [GALANGIN] = 104
4. O=c1cc(-c2ccc(O)c(O)c2)oc2cc(O)cc(O)c12 [LUTEOLIN] = 93
5. O=c1c(O)c(-c2cc(O)c(O)c(O)c2)oc2cc(O)cc(O)c12 [MYRICETIN] = 101
